- Experimental System: HLA-A*0201 (human)
- Test Summary: competition with 125I-labelled standard peptide 941.01 for purified HLA, gel filtration
- Condition Notes: scale: ratio
Each entry gets label 0 if its binding affinity ratio stays under 0.0005, and label 1 if its binding affinity ratio is 0.0005 or above.

>>> df
                                     binder  discrete_label
0  VTWIGAAPLI (modifications not checked) [… (PSA, position 8, 10 amino acids)]         label 1
1  VTWIGAAPLIL (modifications not checked) [… (PSA, position 8, 11 amino acids)]         label 1
2  VVFLTLSVT (modifications not checked) [… (PSA, position 1, 9 amino acids)]         label 1
3  VVHYRKWIKDT (modifications not checked) [… (Kallikrein, position 246, 11 amino acids)]         label 0
4  VVLRKYADKI (modifications not checked) [… (PSM, position 602, 10 amino acids)]         label 0
5  VTKFMLCA (modifications not checked) [VTKFMLCA (PSA, position 188, 8 amino acids)]         label 0
